B1: glmS ribozyme (parent)
chain: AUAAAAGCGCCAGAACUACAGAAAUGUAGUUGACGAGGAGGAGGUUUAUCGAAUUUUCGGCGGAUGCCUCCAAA

- Variants of: B1
- measurement protocol: KM; higher = weaker cofactor use; RNA array
- cond: with glucosamine-6-phosphate
Can you tell me KM for the items I'm about to list?
Remember to quote the unit after the number.

Give KM for the following variant: A42G C50A 7070 µM

Give KM for the following variant: A12C U55C 2710 µM

Give KM for the following variant: C34U A42U 70.4 µM

Give KM for the following variant: A15C U54G 2690 µM

Give KM for the following variant: C67G C68U 234 µM

Give KM for the following variant: C16G U65A 3010 µM
